Taken from ChEMBL document CHEMBL3885861.

This section presents compounds with their documented RALB values.
Organism: Rattus norvegicus
Assay remarks: Open TG-GATES - Regimen: Daily Repeat
Assay type: toxicity, organism-based, Sprague-Dawley
Set-up: regimen Daily Repeat, gender Male, age 6 weeks
Test parameters: in vivo, po, 1000 mg/kg, 72 h, tissue Plasma, route gavage, dose level High, time 3 day
State the answer as a number, implicitly in g/dL.

Previously resolved entries follow.
Compound: O=C(N[C@H](CO)[C@H](O)c1ccc([N+](=O)[O-])cc1)C(Cl)Cl
Unit spec: g/dL
Assay value: 2.4
--
Compound: CCN1CCCC1CNC(=O)c1cc(S(N)(=O)=O)ccc1OC (centres undefined) [SULPIRIDE]
Unit spec: g/dL
Assay value: 2.7
--
Compound: CC(C)(S)[C@@H](N)C(=O)O
Unit spec: g/dL
Assay value: 2.8

Now for a further compound.
## Task Recorded RALB for `O=C(O)c1cccnc1` , please?
## Result 3.1

* * *

Organism: Rattus norvegicus
Assay remarks: Open TG-GATES - Regimen: Daily Repeat
Type: toxicity, organism-based, Sprague-Dawley
Set-up: regimen Daily Repeat, gender Male, age 6 weeks
Test parameters: in vivo, po, 100 mg/kg, […], tissue Plasma, route gavage, dose level Low, time 7 day
Property label: IP (mg/dL)
State the answer as a number, implicitly in mg/dL.

Previously resolved entries follow.
Compound: CC(C)(S)[C@@H](N)C(=O)O
IP (mg/dL): 7.5

Compound: CCN1CCCC1CNC(=O)c1cc(S(N)(=O)=O)ccc1OC (centres undefined) [SULPIRIDE]
IP (mg/dL): 7.5

Compound: O=C(O)c1cccnc1
IP (mg/dL): 7.3

## Task Recorded IP for `O=C(N[C@H](CO)[C@H](O)c1ccc([N+](=O)[O-])cc1)C(Cl)Cl` , please?
## Result 8.3

* * *

Species: Rattus norvegicus
Assay remarks: Open TG-GATES - Regimen: Daily Repeat
Format: toxicity, organism-based, Sprague-Dawley
Set-up: regimen Daily Repeat, gender Male, age 6 weeks
Test parameters: in vivo, po, 100 mg/kg, 72 h, tissue Blood, route gavage, dose level Low, time 3 day
Property label: Neu (%)
State the answer as a number, implicitly in %.

Previously resolved entries follow.
Molecule: O=C(N[C@H](CO)[C@H](O)c1ccc([N+](=O)[O-])cc1)C(Cl)Cl [CHLORAMPHENICOL]
Assay value: 16.2

Molecule: CC(C)(S)[C@@H](N)C(=O)O [PENICILLAMINE]
Assay value: 16.6

## Task Recorded Neu for CCN1CCCC1CNC(=O)c1cc(S(N)(=O)=O)ccc1OC (centres undefined) [SULPIRIDE] , please?
## Result 20.8

## Task // next record O=C(O)c1cccnc1 [NIACIN]
## Result 23.2

* * *

Species: Rattus norvegicus
Assay remarks: Open TG-GATES - Regimen: Daily Repeat
Type: toxicity, organism-based, Sprague-Dawley
Set-up: regimen Daily Repeat, gender Male, age 6 weeks
Test parameters: in vivo, po, 1000 mg/kg, 72 h, tissue Plasma, route gavage, dose level High, time 3 day
Property label: PL (mg/dL)
State the answer as a number, implicitly in mg/dL.

Previously resolved entries follow.
Compound: CC(C)(S)[C@@H](N)C(=O)O
PL [mg/dL]: 143
--
Compound: O=C(N[C@H](CO)[C@H](O)c1ccc([N+](=O)[O-])cc1)C(Cl)Cl
PL [mg/dL]: 138.6
--
Compound: O=C(O)c1cccnc1
PL [mg/dL]: 148.8

Now for a further compound.
## Task Recorded PL for CCN1CCCC1CNC(=O)c1cc(S(N)(=O)=O)ccc1OC (centres undefined) [SULPIRIDE] , please?
## Result 161
